TARGET OR TEST SYSTEM: Chk1 (Homo sapiens, UniProt O14757)
Construct: purchased Upstate Biotechnology
Sequence (O14757 whole entry): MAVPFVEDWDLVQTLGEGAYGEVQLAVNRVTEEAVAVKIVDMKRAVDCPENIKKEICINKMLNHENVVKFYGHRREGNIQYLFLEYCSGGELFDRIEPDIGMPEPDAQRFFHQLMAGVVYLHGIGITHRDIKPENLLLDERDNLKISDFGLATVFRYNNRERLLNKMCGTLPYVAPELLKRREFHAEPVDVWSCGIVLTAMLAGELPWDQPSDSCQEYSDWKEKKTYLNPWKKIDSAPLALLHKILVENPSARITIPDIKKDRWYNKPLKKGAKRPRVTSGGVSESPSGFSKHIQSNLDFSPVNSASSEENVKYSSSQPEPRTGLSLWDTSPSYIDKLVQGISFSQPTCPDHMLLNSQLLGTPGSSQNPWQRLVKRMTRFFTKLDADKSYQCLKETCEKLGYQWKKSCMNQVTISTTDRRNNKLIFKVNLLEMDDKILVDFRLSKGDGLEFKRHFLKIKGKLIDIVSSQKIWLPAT
ASSAY PROCEDURE: Chk1 kinase assay: incorporation of γ-33P ATP into immobilized myelin basic protein
Type: biochemical
MEASUREMENT SETUP: read-out: Chk1 IC50
pIC50: −log10 of the molar value.
# pIC50 per entry

> print(dat)
                         chemical.structure  readout.label     obs.value
1  CNC(=O)c1nc(-c2cccc(C(=O)NCc3ccccc3-c3cccnc3)c2)cnc1N          pIC50  6.00 to 7.30
2  CNC(=O)c1nc(-c2cccc(C(=O)N[C@H](C)c3ccccc3)c2)cnc1N          pIC50  5.00 to 6.00
3  CNC(=O)c1nc(-c2cccc(C(=O)NCc3ccc(F)c(C)c3)c2)cnc1N          pIC50  6.00 to 7.30
4  CNC(=O)c1nc(-c2cccc(C(=O)NCc3ccccc3Cl)c2)cnc1N          pIC50  6.00 to 7.30

Lab entry: Chk1 (Homo sapiens, UniProt O14757) assay, molecule CCNC(=O)c1nc(-c2cccc(N)c2)cnc1N , pIC50 = 5.00 to 6.00
